Test system: PPARg:RXRa (NR concentration 180 nM, RXRa partner concentration 90 nM)
assay info: PBM binding z-score (relative to random genomic background probes); higher = stronger binding; sequences stand for … in GC…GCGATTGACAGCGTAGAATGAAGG
Listed sequences paired with reported PBM binding z-score
// no unit string in output, number only

Solved entries:
## Task For `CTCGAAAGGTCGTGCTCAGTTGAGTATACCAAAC` , what is its reported PBM binding z-score?
## Result 2.54

## Task Could you do the same for `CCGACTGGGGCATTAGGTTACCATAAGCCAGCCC` , please?
## Result 2.09

## Task Could you do the same for `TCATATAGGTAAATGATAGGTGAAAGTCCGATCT` , please?
## Result 1.51

---
## Task For `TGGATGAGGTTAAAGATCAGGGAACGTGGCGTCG` , what is its reported PBM binding z-score?
## Result 3.75

## Task Could you do the same for `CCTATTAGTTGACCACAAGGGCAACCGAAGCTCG` , please?
## Result 0.53

## Task Could you do the same for `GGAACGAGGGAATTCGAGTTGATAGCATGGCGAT` , please?
## Result 0.44

## Task Could you do the same for `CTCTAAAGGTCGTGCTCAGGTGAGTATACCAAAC` , please?
## Result 3.27

## Task Could you do the same for `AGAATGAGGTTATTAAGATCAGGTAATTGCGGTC` , please?
## Result 1.38

----------
Test system: THRa homodimer (NR concentration 90 nM)
assay info: PBM binding z-score (relative to random genomic background probes); higher = stronger binding; sequences stand for … in GC…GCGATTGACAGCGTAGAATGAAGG
Listed sequences paired with reported PBM binding z-score
// no unit string in output, number only

Solved entries:
## Task For `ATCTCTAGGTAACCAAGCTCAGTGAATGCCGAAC` , what is its reported PBM binding z-score?
## Result 0.537

## Task Could you do the same for `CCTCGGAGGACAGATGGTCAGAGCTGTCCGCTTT` , please?
## Result -0.332

## Task Could you do the same for `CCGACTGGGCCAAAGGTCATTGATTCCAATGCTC` , please?
## Result 0.644

## Task Could you do the same for `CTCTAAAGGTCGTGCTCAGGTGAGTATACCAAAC` , please?
## Result 1.31

## Task Could you do the same for `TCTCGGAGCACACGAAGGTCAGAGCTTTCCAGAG` , please?
## Result -0.853

---
## Task For `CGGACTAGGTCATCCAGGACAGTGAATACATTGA` , what is its reported PBM binding z-score?
## Result 1.79

----------
Tested on: LXRb:RXRa (NR concentration 270 nM, RXRa partner concentration 90 nM)
assay info: PBM binding z-score (relative to random genomic background probes); higher = stronger binding; sequences stand for … in GC…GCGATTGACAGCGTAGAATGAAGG
Listed sequences paired with reported PBM binding z-score
// no unit string in output, number only

## Task For `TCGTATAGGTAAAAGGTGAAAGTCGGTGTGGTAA` , what is its reported PBM binding z-score?
## Result 2.23

## Task Could you do the same for `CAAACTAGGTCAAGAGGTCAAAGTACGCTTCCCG` , please?
## Result 5.71

## Task Could you do the same for `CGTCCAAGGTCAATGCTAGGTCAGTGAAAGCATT` , please?
## Result 3.98

## Task Could you do the same for `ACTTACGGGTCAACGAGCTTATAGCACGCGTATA` , please?
## Result 3.55

## Task Could you do the same for `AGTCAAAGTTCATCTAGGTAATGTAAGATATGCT` , please?
## Result 4.07

## Task Could you do the same for `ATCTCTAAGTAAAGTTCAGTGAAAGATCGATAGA` , please?
## Result 1.23

## Task Could you do the same for `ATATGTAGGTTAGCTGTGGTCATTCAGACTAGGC` , please?
## Result 0.643

## Task Could you do the same for `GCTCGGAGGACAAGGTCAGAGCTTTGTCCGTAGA` , please?
## Result 1.29

## Task Could you do the same for `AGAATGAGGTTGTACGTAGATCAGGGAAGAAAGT` , please?
## Result 0.364

## Task Could you do the same for `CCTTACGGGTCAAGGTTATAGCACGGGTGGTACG` , please?
## Result 2.98

## Task Could you do the same for `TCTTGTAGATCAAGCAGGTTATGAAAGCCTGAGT` , please?
## Result 0.124

## Task Could you do the same for `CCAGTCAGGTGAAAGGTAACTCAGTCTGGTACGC` , please?
## Result 0.541
